Just for reference, ChEMBL document CHEMBL1124405 is where these values come from.

System: Mycoplasmoides gallisepticum
Assay overview: The anti-mycoplasmal activity was determined against Mycoplasma gallisepticum K514 with the addition of copper (40 uM CuSO4)
Format: functional
Note to self: use true (1) only for MIC readings below 0.08 µM; a reading exactly at 0.08 µM still gets false (0).

Check out these entries, answers already filled in.
{"Chem smiles": "N=C(Nc1nc(-c2ccccn2)cc2ccccc12)c1cccc(Cl)c1", "Class name": "false (0)"}
{"Chem smiles": "Cc1cc(C(=N)Nc2nc(-c3ccccn3)cc3ccccc23)ccn1", "Class name": "true (1)"}
{"Chem smiles": "N=C(Nc1nc(-c2ccccn2)cc2ccccc12)c1ccccn1", "Class name": "true (1)"}
{"Chem smiles": "N=C(Nc1nc(-c2ccccn2)cc2ccccc12)c1ccccc1", "Class name": "true (1)"}
{"Chem smiles": "N=C(Nc1nc(-c2ccccn2)cc2ccccc12)c1ccncc1", "Class name": "true (1)"}

Enquiry: Is MIC of Cc1cccc2c(NC(=N)c3ccccn3)nc(-c3ccccc3)cc12 strictly below 0.08 µM?
Return: false (0)

Enquiry: Is MIC of COc1ccc(C(=N)Nc2nc(-c3ccccn3)cc3ccccc23)cc1 strictly below 0.08 µM?
Return: false (0)

Enquiry: Is MIC of N=C(Nc1nc(-c2ccccn2)cc2ccccc12)c1ncccn1 strictly below 0.08 µM?
Return: true (1)

Enquiry: Is MIC of Cc1ccc(C(=N)Nc2nc(-c3ccccn3)cc3ccccc23)cc1 strictly below 0.08 µM?
Return: true (1)

Enquiry: Is MIC of CC[C@H]1OC(=O)C[C@@H](O)[C@H](C)[C@@H](O[C@@H]2O[C@H](C)[C@@H](O[C@H]3C[C@@](C)(O)[C@@H](O)[C@H](C)O3)[C@H](N(C)C)[C@H]2O)[C@@H](CC=O)C[C@@H](C)C(=O)/C=C/C(C)=C/[C@@H]1CO[C@@H]1O[C@H](C)[C@@H](O)[C@@H](OC)[C@H]1OC strictly below 0.08 µM?
Return: false (0)

Enquiry: Is MIC of N=C(Nc1nc(-c2ccccn2)cc2ccccc12)c1ccc(Cl)c(Cl)c1 strictly below 0.08 µM?
Return: false (0)

Enquiry: Is MIC of Cc1cccc(C(=N)Nc2nc(-c3ccccn3)cc3ccccc23)n1 strictly below 0.08 µM?
Return: true (1)

###

Entries and their MIC
Test system: Mycoplasmoides gallisepticum
Assay overview: The anti-mycoplasmal activity was determined against Mycoplasma gallisepticum K514 with the addition of copper (40 uM CuSO4)
Type: functional

Enquiry: Quick check: MIC of COc1cccc(C(=N)Nc2nc(-c3ccccn3)cc3ccccc23)c1 ?
Return: 0.078 µM

Enquiry: Quick check: MIC of Cc1cccc(C(=N)Nc2nc(-c3ccccn3)cc3ccccc23)c1 ?
Return: 0.0488 µM

Enquiry: Quick check: MIC of N=C(Nc1nc(-c2ccccn2)cc2ccccc12)c1cnccn1 ?
Return: 0.039 µM

Enquiry: Quick check: MIC of N=C(Nc1nc(-c2ccccn2)cc2ccccc12)c1ccc(Cl)cc1 ?
Return: 0.195 µM
